Data provenance is PubChem BioAssay (NCI).

Tested on: OVCAR-3 ovarian
Experiment: NCI-60 one-dose screen, 48 h (100 = growth as untreated, 0 = no growth, -100 = all killed)
Settings: 10 µM unless noted
Procedure: Growth inhibition of the OVCAR-3 human tumor cell line is measured as a screen for anti-cancer activity. Cells are grown in 96 well plates and exposed to the test compound for 48 hours. Compounds are tested at a single concentration, which is 10^-5 M for most compounds. The reported endpoint is percent growth (GI% or GIPRCNT), where numbers from 0 - 100% represent growth inhibition, and numbers from -100% - 0 represent cell death. For example, a value of 40 represents 60% growth inhibition. […]
About 83,000 compounds went through this panel and 20% of them were active in at least one assay; those are over-represented in the sample as a whole.
measuredQuantity: growth (%)

| compound | targetOfAssay | assayValue |
| --- | --- | --- |
| Cc1cc2cn3c4ccc(O)cc4nc(N)c3c2cc1C | OVCAR-3 ovarian | 16.5 |
| CCN(CC)C(=O)C1(C)CCCC2(C)c3cc(OC(C)=O)ccc3CCC12 (stereo not given) | OVCAR-3 ovarian | 88.8 |
| O=C(CN1CCN(c2cccc(Cl)c2)CC1)N1CCN(c2nnc(-c3ccc(Cl)cc3)c(-c3ccc(Cl)cc3)n2)CC1 | OVCAR-3 ovarian | 72.6 |
| OCC(O)C(O)CC1SCCS1 (stereo not given) | OVCAR-3 ovarian | 101 |
| O=C(N/N=C/c1coc2ccccc2c1=O)c1cc2oc(-c3ccccc3)cc2[nH]1 | OVCAR-3 ovarian | 99.8 |
